- System: HeLa Kyoto
- procedureSummary: melting temperature (median over replicates), in situ; higher = more thermally stable
- assayConditions: cell cycle stage: mitosis
readout: melting temperature (°C)

[
  {
    "seq": "MAADISESSGADCKGDPRNSAKLDADYPLRVLYCGVCSLPTEYCEYMPDVAKCRQWLEKNFPNEFAKLTVENSPKQEAGISEGQGTAGEEEEKKKQKRGGRGQIKQKKKTVPQKVTIAKIPRAKKKYVTRVCGLATFEIDLKEAQRFFAQKFSCGASVTGEDEIIIQGDFTDDIIDVIQEKWPEVDDDSIEDLGEVKK [DENR]",
    "endpointResult": 58.6
  },
  {
    "seq": "MDTPPLSDSESESDESLVTDRELQDAFSRGLLKPGLNVVLEGPKKAVNDVNGLKQCLAEFKRDLEWVERLDVTLGPVPEIGGSEAPAPQNKDQKAVDPEDDFQREMSFYRQAQAAVLAVLPRLHQLKVPTKRPTDYFAEMAKSDLQMQKIRQKLQTKQAAMERSEKAKQLRALRKYGKKVQTEVLQKRQQEKAHMMNAIKKYQKGFSDKLDFLEGDQKPLAQRKKAGAKGQQMRKGPSAKRRYKNQKFGFGGKKKGSKWNTRESYDDVSSFRAKTAHGRGLKRPGKKGSNKRPGKRTREKMKNRTH [EBNA1BP2]",
    "endpointResult": 53.4
  },
  {
    "seq": "MAEVSIDQSKLPGVKEVCRDFAVLEDHTLAHSLQEQEIEHHLASNVQRNRLVQHDLQVAKQLQEEDLKAQAQLQKRYKDLEQQDCEIAQEIQEKLAIEAERRRIQEKKDEDIARLLQEKELQEEKKRKKHFPEFPATRAYADSYYYEDGGMKPRVMKEAVSTPSRMAHRDQEWYDAEIARKLQEEELLATQVDMRAAQVAQDEEIARLLMAEEKKAYKKAKEREKSSLDKRKQDPEWKPKTAKAANSKSKESDEPHHSKNERPARPPPPIMTDGEDADYTHFTNQQSSTRHFSKSESSHKGFHYKH [CCDC50]",
    "endpointResult": 55
  }
]

* * *

As shown below, each of these sequences has a reported solubility in G1/S (log2) value.
- System: HeLa Kyoto
- procedureSummary: solubility in G1/S (NP-40 vs SDS abundance) (log2 ratio); higher = more soluble
- assayConditions: cell cycle stage: G1/S

[
  {
    "seq": "MAATALLEAGLARVLFYPTLLYTLFRGKVPGRAHRDWYHRIDPTVLLGALPLRSLTRQLVQDENVRGVITMNEEYETRFLCNSSQEWKRLGVEQLRLSTVDMTGIPTLDNLQKGVQFALKYQSLGQCVYVHCKAGRSRSATMVAAYLIQVHKWSPEEAVRAIAKIRSYIHIRPGQLDVLKEFHKQITARATKDGTFVISKT [PTPMT1]",
    "target": "HeLa Kyoto",
    "solubility in G1/S (log2)": -0.268
  },
  {
    "seq": "MEGAAAREARGTETPRASAPPPAPSEPPAAPRARPRLVFRTQLAHGSPTGKIEGFTNVRELYAKIAEAFGIAPTEILFCTLNSHKVDMQKLLGGQIGLEDFIFAHVRGETKEVEVTKTEDALGLTITDNGAGYAFIKRIKEGSIINRIEAVCVGDSIEAINDHSIVGCRHYEVAKMLRELPKSQPFTLRLVQPKRAFDMIGQRSRSSKCPVEAKVTSGRETLRLRSGGAATVEEAPSEFEEEASRKVDDLLESYMGIRDPELASTMVETSKKTASAQEFARCLDSVLGEFAFPDEFVVEVWAAIGEAREACG [GIPC3]",
    "target": "HeLa Kyoto",
    "solubility in G1/S (log2)": 0.0786
  },
  {
    "seq": "MVIRVYIASSSGSTAIKKKQQDVLGFLEANKIGFEEKDIAANEENRKWMRENVPENSRPATGYPLPPQIFNESQYRGDYDAFFEARENNAVYAFLGLTAPPGSKEAEVQAKQQA [SH3BGRL]",
    "target": "HeLa Kyoto",
    "solubility in G1/S (log2)": 0.375
  },
  {
    "seq": "MAGIPGLLFLLFFLLCAVGQVSPYSAPWKPTWPAYRLPVVLPQSTLNLAKPDFGAEAKLEVSSSCGPQCHKGTPLPTYEEAKQYLSYETLYANGSRTETQVGIYILSSSGDGAQHRDSGSSGKSRRKRQIYGYDSRFSIFGKDFLLNYPFSTSVKLSTGCTGTLVAEKHVLTAAHCIHDGKTYVKGTQKLRVGFLKPKFKDGGRGANDSTSAMPEQMKFQWIRVKRTHVPKGWIKGNANDIGMDYDYALLELKKPHKRKFMKIGVSPPAKQLPGGRIHFSGYDNDRPGNLVYRFCDVKDETYDLLYQQCDAQPGASGSGVYVRMWKRQQQKWERKIIGIFSGHQWVDMNGSPQDFNVAVRITPLKYAQICYWIKGNYLDCREG [PRSS23]",
    "target": "HeLa Kyoto",
    "solubility in G1/S (log2)": -0.403
  }
]
